biological target: Prostaglandin E2 receptor EP2 subtype (Homo sapiens); assay: EP2 receptor modulators, dose response, cell-based, human EP2, PGE2 EC50 shift (AID 1421); conditions: EP2-expressing cells, PGE2 EC50 shift by compound; measured here: PGE2 EC50 at 6.7 uM compound
Assay Endpoint: PGE2 EC50 with compound (nM)

>>> print(df.to_string())
                                   molecule           assay_endpoint  measurement
0  CCOC(=O)N1CCC(=C2c3ccc(Cl)cc3CCc3cccnc32)CC1  PGE2 EC50 with compound         0.95
1  FC(F)(F)c1cccc(-c2cc3ccccc3nc2N2CCCC2)c1  PGE2 EC50 with compound         1.36
2  O=c1[nH]c2ccc(Br)cc2c(-c2ccccc2)c1N1CCOCC1  PGE2 EC50 with compound         1.07
3  CCN(CC)P(=O)(Nc1ccccc1Br)c1ccc(N(C)C)cc1NC(=O)c1ccco1 (stereo unspecified)  PGE2 EC50 with compound         1.19
4       Cc1ccc(C)c(N=C2CCCN2Cc2ccccc2)c1C#N  PGE2 EC50 with compound         0.61
5      Cc1cccc(OCC(=O)Nc2ccccc2-c2ccccc2)c1  PGE2 EC50 with compound         0.63

---

Listing: PGE2 EC50 with compound of selected molecules
biological target: UniProtKB P43116; experiment: EP2 receptor modulators, dose response, cell-based, human EP2, PGE2 EC50 shift (AID 1421); conditions: EP2-expressing cells, PGE2 EC50 shift by compound; measured here: PGE2 EC50 at 6.7 uM compound
Assay Endpoint: PGE2 EC50 with compound (nM)

>>> df
                                smiles_repr           assay_endpoint  reading_unit  measurement
0       C(=N\N(Cc1ccccc1)c1ccccc1)/c1cccnc1  PGE2 EC50 with compound            nM         1.34
1  CCOc1ccc(C2=Nn3c(nnc3-c3ccccc3OC)SC2)cc1  PGE2 EC50 with compound            nM         0.91
2    COc1ccc2c(c1)c(=O)c(Br)c(C)n2Cc1ccccc1  PGE2 EC50 with compound            nM         0.83
3  Cn1c(/C=C/N(Cc2ccccc2)c2ccccc2)c([N+](=O)[O-])c(=O)n(C)c1=O  PGE2 EC50 with compound            nM         1.21
4     CSc1nnc(CSCc2ccc(Cl)cc2Cl)n1-c1ccccc1  PGE2 EC50 with compound            nM         2.63
5            COc1cnc(SCc2c(Cl)cccc2Cl)nc1Cl  PGE2 EC50 with compound            nM         1.76

---

biological target: Prostaglandin E2 receptor EP2 subtype (Homo sapiens) (UniProt P43116); assay: EP2 receptor modulators, dose response, cell-based, human EP2, PGE2 EC50 shift (AID 1421); details: EP2-expressing cells, PGE2 EC50 shift by compound; measured here: PGE2 EC50 at 6.7 uM compound
Sequence (P43116 whole entry, looked up): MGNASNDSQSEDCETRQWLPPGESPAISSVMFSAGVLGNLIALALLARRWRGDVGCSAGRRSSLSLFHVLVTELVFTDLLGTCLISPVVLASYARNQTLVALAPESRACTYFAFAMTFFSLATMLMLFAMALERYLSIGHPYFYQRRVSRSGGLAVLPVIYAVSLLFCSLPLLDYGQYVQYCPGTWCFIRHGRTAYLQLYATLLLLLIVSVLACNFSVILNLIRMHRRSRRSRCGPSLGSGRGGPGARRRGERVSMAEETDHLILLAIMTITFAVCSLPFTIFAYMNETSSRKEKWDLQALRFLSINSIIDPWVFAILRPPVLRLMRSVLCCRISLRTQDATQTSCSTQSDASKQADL
Listing: PGE2 EC50 with compound of selected molecules
Assay Endpoint: PGE2 EC50 with compound (nM)

>>> df
                                    molecule           assay_endpoint  measurement
 0  Cc1oc(-c2ccccc2)cc1C(=O)Nc1cccc(/C=C/C(=O)O)c1  PGE2 EC50 with compound         2.37
 1                Cc1nc(SCCC(=O)O)c2ccccc2n1  PGE2 EC50 with compound         2.93
 2           N#CC1=C(N)SC(N)=C(C#N)C1c1ccoc1  PGE2 EC50 with compound         2.61
 3  Nc1c(C(=O)NCc2ccco2)c2nc3ccccc3nc2n1CCc1ccccc1  PGE2 EC50 with compound         1.78
 4  CCOC(=O)c1c(-c2ccc(C)cc2)csc1NC(=O)c1ccc(N2C(=O)CCC2=O)cc1  PGE2 EC50 with compound          1.5
 5         Oc1ccccc1-c1nc(N2CCCC2)c2ccccc2n1  PGE2 EC50 with compound         0.64
 6  CCN(Cc1ccccc1)C(c1cc2cc(C)cc(C)c2[nH]c1=O)c1nnnn1CCOC (stereo unspecified)  PGE2 EC50 with compound         1.28
 7      COC(=O)c1c(NC(=O)Cc2cccs2)sc2c1CCCC2  PGE2 EC50 with compound         1.02
 8           C=CCSc1nc2ccsc2c(=O)n1-c1ccccc1  PGE2 EC50 with compound         2.54
 9    COc1ccc(-c2nc(NC(C)=O)sc2-c2ccccc2)cc1  PGE2 EC50 with compound         1.01
10  O=C(CN1CCN(Cc2ccccc2)CC1)Nc1ccccc1-c1ccccc1  PGE2 EC50 with compound         2.97

---

molecular target: Prostaglandin E2 receptor EP2 subtype (Homo sapiens); experiment: EP2 receptor modulators, dose response, cell-based, human EP2, PGE2 EC50 shift (AID 1421); conditions: EP2-expressing cells, PGE2 EC50 shift by compound; measured here: PGE2 EC50 at 6.7 uM compound

Compound	PGE2 EC50 with compound, nM
O=C(Nc1ccccc1N1CCN(c2ccccc2)CC1)C12CC3CC(CC(C3)C1)C2	2.52
Cc1nc(N(C)C)c2sc(=S)n(Cc3ccccc3)c2n1	1.21
CCCc1cc(C(=O)OC)c(NC(=O)c2cc(C)on2)s1	0.7
COc1cc(/C=C/c2ccc3cccc([N+](=O)[O-])c3n2)ccc1OCC(=O)O	1.64
Cc1sc2ncnc(N(C)Cc3cccs3)c2c1C	2.57
CCN(CC)C(=O)c1nn(-c2ccccc2)c2c1C1CCC2(C)C1(C)C (stereo not given)	1.24
CC(=O)NC(c1ccccc1)c1cccnc1 (stereo not given)	1.03
CCOc1ccc(-n2nc3c(=S)[nH]nc(C)c3c2C)cc1	3.04
CC(=O)O[C@H]1CC[C@@]2(C)[C@@H](CC[C@H]3[C@H]2CC(=O)[C@]2(C)[C@@H]3C[C@H]3CC(C)=CC(=O)[C@@H]32)C1	1.34
O=P(c1ccccc1)(c1ccccc1)c1nc(-c2ccccc2)oc1NCc1ccccc1	0.33
O=C(Cc1c(F)cccc1Cl)Nc1ccccc1N1CCCCC1	2.55
CC(=O)CSc1ncnc2sc3c(c12)CCC(C)C3 (stereo not given)	1.75
CCOC(=O)c1ccccc1NC1c2ccccc2C(=O)N1c1cc(C)ccn1 (stereo not given)	1.13
Cc1cccc(-n2c(=S)[nH]c3c(oc4ccccc43)c2=O)c1	2.78
CCOc1ccccc1Cn1c(=O)sc2ccccc21	2.65
CCCSc1ncnc2sc(C)c(C)c12	0.89
O=C1CCCc2ccccc2N1Cc1c(Cl)cccc1Cl	1.04
O=C(Nc1ccccc1-c1nc2ccccc2s1)C1=COCCO1	0.46
Cc1cc(N)c2cc(NC(=O)Nc3ccc4nc(C)cc(N)c4c3)ccc2n1	2.6
O=C(O)c1cc(C(=O)O)cc(N2C(=O)c3ccccc3C2=O)c1	0.83
Cc1cccc(OCCCC(=O)N2CCCc3ccccc32)c1C	0.71
Cc1cc(NC(=O)c2cc(-c3ccncc3)nc3c(C)cccc23)no1	1.16
CCc1ccc(NC(=S)N(Cc2ccccc2)Cc2ccccn2)cc1	2.7
CCOc1ccccc1C(=O)Nc1ccccc1-c1ccccc1	1.34
Cc1ccc(-n2nc3c(c2NC(=O)c2ccc(Br)o2)CSC3)c(C)c1	1.36
COC[C@H]1OC(=O)c2coc3c2[C@@]1(C)C1=C(C3=O)C2CCC(=O)[C@@]2(C)C[C@H]1OC(C)=O (stereo not given in full)	0.84
CC(=O)N1c2ccccc2C(C)CC12CCCCC2 (stereo not given)	2.48
CCSc1nnc(-c2ccc(Cl)cc2)c2ccccc12	0.76
CC(=O)Oc1c2c(c3c(c1CC=C(C)C)O[C@]14C(=C[C@@H]5CC1C(C)(C)OC4(C/C=C(\C)C(=O)O)C5=O)C3=O)OC(C)(CCC=C(C)C)C=C2 (stereo not given in full)	0.89
COc1ccc(Cn2c(-c3ccc(OC)cc3)nc3ccccc32)cc1	1
COc1cc2ccccc2cc1C(=O)NC(=S)Nc1cc(C(=O)O)ccc1C	3.08
Cc1cc(C)c(S(=O)(=O)O)c(C)n1	1.25
O=C(c1ccccc1O)N1N=C(c2ccccc2)CC1(O)C(F)(F)F (stereo not given)	1.48
CCOC(=O)C1=C(C)N(C)C(C)=C(C(=O)OCC)C1c1ccsc1	0.79
Clc1ccc(-c2ccc(/C=N/Nc3cc(N4CCOCC4)nc(N4CCOCC4)n3)o2)cc1	2.85
O=C(CNC1CCCCC1)N1CCC2(CC1)OCCO2	1.35
CCCCOc1ccccc1Cn1c(=O)oc2ccccc21	0.81
Cc1cccc(Oc2sc(C(=O)c3ccccc3)c(N)c2C#N)c1	1.51
O=C(CSc1nc2ccccc2o1)Nc1cc(C(F)(F)F)ccc1N1CCOCC1	0.77
COc1cccc2[nH]c3c(N4CCCC(C)C4)ncnc3c12 (stereo not given)	23.2
O=C(NCc1ccco1)C(c1cccs1)N(C(=O)Cc1cccs1)c1ccccc1 (stereo not given)	1.49
CCCCCCC/C=C\CCCCCCCCC(=O)O	1.56
Cc1ccccc1Cn1c2ccccc2c2cn[nH]c(=O)c21	1.15
CCCCc1nc(N2CCOCC2)c(C#N)c2c1CCCC2	0.98
O=C(Nc1ccccc1N1CCCCC1)c1ccc(Cl)c([N+](=O)[O-])c1	1.23
